List of IC50 values.
Biological target: Recombinant STAT3 protein (STAT3(G127-I722)) (Homo sapiens, UniProt P40763)
Construct: Recombinant STAT3 protein (STAT3(G127-I722))
Sequence (P40763 127-722): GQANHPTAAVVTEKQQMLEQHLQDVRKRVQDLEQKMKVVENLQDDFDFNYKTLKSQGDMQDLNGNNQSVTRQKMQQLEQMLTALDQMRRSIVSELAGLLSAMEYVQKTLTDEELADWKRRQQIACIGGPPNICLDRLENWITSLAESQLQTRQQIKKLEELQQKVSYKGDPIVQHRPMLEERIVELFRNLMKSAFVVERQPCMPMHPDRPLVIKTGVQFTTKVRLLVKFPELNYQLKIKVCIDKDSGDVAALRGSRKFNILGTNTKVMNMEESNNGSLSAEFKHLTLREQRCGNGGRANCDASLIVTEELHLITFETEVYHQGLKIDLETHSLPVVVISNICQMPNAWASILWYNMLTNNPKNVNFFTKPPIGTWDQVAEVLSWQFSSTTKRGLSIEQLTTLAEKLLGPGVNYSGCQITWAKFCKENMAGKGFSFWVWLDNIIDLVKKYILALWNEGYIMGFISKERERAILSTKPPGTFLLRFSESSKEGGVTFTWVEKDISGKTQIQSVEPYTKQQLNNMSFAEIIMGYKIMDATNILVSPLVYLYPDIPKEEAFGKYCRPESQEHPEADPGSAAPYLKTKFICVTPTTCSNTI
Assay: STAT3 Fluorescence Polarization (FP) Assay
Conditions: STAT3(G127-I722) 25 nM, probe 5-FAM-GpYLPQTV-NH2 2 nM, 45-minute incubation

Field: example entries. Status: answers known.
[[record]]
compound = "O=C(N[C@H]1CS(=O)(=O)CC[C@H]2CC[C@@H](C(=O)N3CC(c4cccnc4)C3)N2C1=O)c1cc2cc(C(F)(F)P(=O)(O)O)ccc2s1"
measured_on = "Recombinant STAT3 protein (STAT3(G127-I722)) (Homo sapiens, UniProt P40763)"
value_reported = "≤ 0.1 µM"

[[record]]
compound = "O=C(N[C@H]1CN(CC(F)F)CC[C@H]2CC[C@@H](C(=O)N3CC(C(=O)N4CCOCC4)C3)N2C1=O)c1cc2cc(C(F)(F)P(=O)(O)O)ccc2s1"
measured_on = "Recombinant STAT3 protein (STAT3(G127-I722)) (Homo sapiens, UniProt P40763)"
value_reported = "≤ 0.1 µM"

[[record]]
compound = "CC(=O)N1CC[C@H]2CC[C@@H](C(=O)N(C)c3ccccc3)N2C(=O)[C@@H](NC(=O)c2ccc3ccc(C(F)P(=O)(O)O)cc3c2)C1 (some centres unmarked)"
measured_on = "Recombinant STAT3 protein (STAT3(G127-I722)) (Homo sapiens, UniProt P40763)"
value_reported = "> 10 µM"

[[record]]
compound = "COCCOc1ccc(N(C)C(=O)[C@@H]2CC[C@@H]3CCN(C(C)=O)C[C@H](NC(=O)c4cc5cc(C(F)(F)P(=O)(O)O)ccc5[nH]4)C(=O)N32)cc1"
measured_on = "Recombinant STAT3 protein (STAT3(G127-I722)) (Homo sapiens, UniProt P40763)"
value_reported = "1 to 10 µM"


Now look at this entry.
Per the record, Cc1ccc2onc(C(=O)N3CC[C@H]4CC[C@@H](C(=O)N5CCOCC5)N4C(=O)[C@@H](NC(=O)c4ccc5c(C#N)cc(CP(=O)(O)O)cc5c4)C3)c2c1 has IC50 of > 10 µM

----------
Reported pIC50 values for the following molecules.
Target: Recombinant STAT6 protein (STAT6(W123-T658)) (Homo sapiens, UniProt P42226)
Construct: Recombinant STAT6 protein (STAT6(W123-T658))
Sequence (P42226 123-658): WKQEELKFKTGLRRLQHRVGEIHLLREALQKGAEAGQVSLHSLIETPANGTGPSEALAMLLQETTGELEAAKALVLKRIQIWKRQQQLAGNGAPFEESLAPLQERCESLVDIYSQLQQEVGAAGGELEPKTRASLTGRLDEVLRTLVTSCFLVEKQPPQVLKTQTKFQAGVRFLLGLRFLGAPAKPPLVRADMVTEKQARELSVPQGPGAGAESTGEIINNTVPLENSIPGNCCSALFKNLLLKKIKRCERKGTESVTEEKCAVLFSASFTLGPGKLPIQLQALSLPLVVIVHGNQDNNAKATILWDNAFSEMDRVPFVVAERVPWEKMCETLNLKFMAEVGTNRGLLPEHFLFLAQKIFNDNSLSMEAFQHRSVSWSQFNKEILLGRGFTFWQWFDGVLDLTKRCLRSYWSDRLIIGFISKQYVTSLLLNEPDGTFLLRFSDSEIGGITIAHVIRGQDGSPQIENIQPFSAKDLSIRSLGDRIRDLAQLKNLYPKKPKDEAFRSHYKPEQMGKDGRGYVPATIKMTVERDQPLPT
Assay: STAT6 Fluorescence Polarization (FP) Assay
Conditions: STAT6(W123-T658) 250 nM, probe 5-FAM-ApYKPFQDLI-NH2 2 nM, 45-minute incubation
pIC50: −log10 of the molar value.

[[record]]
molecule = "N#C[C@H]1CN(C(=O)[C@@H]2CC[C@@H]3CN(C(=O)OCc4ccccc4)CC[C@H](NC(=O)c4ccc5ccc(C(F)(F)P(=O)(O)O)cc5c4)C(=O)N32)C[C@@H]1c1ccccc1 (relative stereo)"
value_reported = "≥ 6.52"

[[record]]
molecule = "CC(=O)N1CC[C@H]2CC[C@@H](C(=O)N(C)c3ccc(C(C)(C)C)c(Cl)c3)N2C(=O)[C@@H](NC(=O)c2cc3cc(C(F)(F)P(=O)(O)O)ccc3s2)C1"
value_reported = "5.52 to 6.52"

[[record]]
molecule = "Cc1ccc2onc(C(=O)N3CC[C@H]4CC[C@@H](C(=O)N5CCOC[C@H]5c5ccccc5)N4C(=O)[C@@H](NC(=O)c4ccc5ccc(C(F)P(=O)(O)O)cc5c4)C3)c2c1 (stereo partly shown)"
value_reported = "≥ 6.52"

[[record]]
molecule = "CC(=O)N1CC[C@H]2CC[C@@H](C(=O)N(C)C3CCCCC3)N2C(=O)[C@@H](NC(=O)c2cc3cc(C(F)(F)P(=O)(O)O)ccc3[nH]2)C1"
value_reported = "5.52 to 6.52"

[[record]]
molecule = "CC(=O)N1CC[C@H]2CC[C@@H](C(=O)N(C)c3ccc(Cl)c(Cl)c3)N2C(=O)[C@@H](NC(=O)c2cc3cc(C(F)(F)P(=O)(O)O)ccc3s2)C1"
value_reported = "5.52 to 6.52"

[[record]]
molecule = "CC(=O)N1CC[C@H]2CC[C@@H](C(=O)Nc3ccc4nccnc4c3)N2C(=O)[C@@H](NC(=O)c2cc3cc(C(F)(F)P(=O)(O)O)ccc3s2)C1"
value_reported = "5.52 to 6.52"

[[record]]
molecule = "O=C(N[C@H]1CN(c2cc3ccccc3cn2)CC[C@H]2CC[C@@H](C(=O)N3CCOCC3)N2C1=O)c1ccc2ccc(C(F)P(=O)(O)O)cc2c1 (stereo partly shown)"
value_reported = "4.52 to 5.52"

[[record]]
molecule = "Cc1ccc2[nH]nc(C(=O)N3CC[C@H]4CC[C@@H](C(=O)N(C)C)N4C(=O)[C@@H](NC(=O)c4ccc5ccc(C(F)(F)P(=O)(O)O)cc5c4)C3)c2c1"
value_reported = "≥ 6.52"


Consider CC(=O)N1CC[C@H]2CC[C@@H](C(=O)Nc3ccc(S(C)(=O)=O)cc3)N2C(=O)[C@@H](NC(=O)c2cc3cc(C(F)(F)P(=O)(O)O)ccc3s2)C1 . Its measured pIC50 is 5.52 to 6.52

The molecule listed as CCN1CC[C@H]2CC[C@@H](C(=O)N3C[C@@H](C#N)[C@H](c4ccccc4)C3)N2C(=O)[C@@H](NC(=O)c2ccc3ccc(C(F)(F)P(=O)(O)O)cc3c2)C1 (single isomer, unassigned) shows pIC50 equal to 5.52 to 6.52
